molecular target: CRBN/DDB1 (Homo sapiens (Human), UniProt Q96SW2); assay: IC50 measurements for binding to CRBN/DDB1 (HTRF); conditions: His tagged CRBN+DDB, Cy5-labeled Thalidomide probe, one hour
Sequence (Q96SW2 whole entry, species assumed): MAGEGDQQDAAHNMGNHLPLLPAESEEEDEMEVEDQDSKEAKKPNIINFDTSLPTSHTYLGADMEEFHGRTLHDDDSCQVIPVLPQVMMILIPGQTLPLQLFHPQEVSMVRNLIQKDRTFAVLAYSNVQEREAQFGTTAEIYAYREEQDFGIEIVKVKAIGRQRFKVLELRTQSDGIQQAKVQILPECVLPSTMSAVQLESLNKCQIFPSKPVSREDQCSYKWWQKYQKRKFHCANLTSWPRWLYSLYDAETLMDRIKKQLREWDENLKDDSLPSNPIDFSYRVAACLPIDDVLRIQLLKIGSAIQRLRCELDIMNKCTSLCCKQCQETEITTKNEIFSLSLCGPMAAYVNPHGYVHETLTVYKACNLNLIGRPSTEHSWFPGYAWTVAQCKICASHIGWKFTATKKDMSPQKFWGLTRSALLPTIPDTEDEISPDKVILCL
Sequence (Q16531 whole entry partner, species assumed): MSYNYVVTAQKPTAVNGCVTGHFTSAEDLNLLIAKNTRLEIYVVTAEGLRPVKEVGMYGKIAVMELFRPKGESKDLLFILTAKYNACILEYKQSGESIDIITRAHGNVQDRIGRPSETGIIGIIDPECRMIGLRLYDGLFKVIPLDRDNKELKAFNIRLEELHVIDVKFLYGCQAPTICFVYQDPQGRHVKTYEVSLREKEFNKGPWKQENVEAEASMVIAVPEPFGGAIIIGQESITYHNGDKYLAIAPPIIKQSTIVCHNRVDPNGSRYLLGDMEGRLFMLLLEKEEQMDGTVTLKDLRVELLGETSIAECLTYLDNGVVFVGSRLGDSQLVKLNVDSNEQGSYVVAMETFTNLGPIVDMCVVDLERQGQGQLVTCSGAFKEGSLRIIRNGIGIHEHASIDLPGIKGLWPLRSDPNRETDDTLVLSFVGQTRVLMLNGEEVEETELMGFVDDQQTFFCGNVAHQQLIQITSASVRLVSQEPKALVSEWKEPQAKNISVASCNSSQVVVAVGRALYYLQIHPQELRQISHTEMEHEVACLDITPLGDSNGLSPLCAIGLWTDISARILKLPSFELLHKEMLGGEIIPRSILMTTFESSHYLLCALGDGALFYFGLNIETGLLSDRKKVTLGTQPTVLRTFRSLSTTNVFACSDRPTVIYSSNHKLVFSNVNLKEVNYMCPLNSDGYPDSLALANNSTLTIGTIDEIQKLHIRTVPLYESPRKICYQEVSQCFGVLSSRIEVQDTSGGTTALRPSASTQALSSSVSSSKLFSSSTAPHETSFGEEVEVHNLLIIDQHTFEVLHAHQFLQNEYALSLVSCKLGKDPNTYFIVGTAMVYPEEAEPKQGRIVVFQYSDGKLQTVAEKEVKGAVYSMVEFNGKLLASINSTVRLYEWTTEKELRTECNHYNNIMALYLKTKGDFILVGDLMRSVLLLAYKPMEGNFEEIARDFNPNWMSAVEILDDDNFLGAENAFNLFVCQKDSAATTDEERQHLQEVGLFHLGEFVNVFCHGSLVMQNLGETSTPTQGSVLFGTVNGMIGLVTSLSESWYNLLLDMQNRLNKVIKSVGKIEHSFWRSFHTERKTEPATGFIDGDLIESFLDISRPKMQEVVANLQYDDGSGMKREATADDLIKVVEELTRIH
Recorded IC50, one value per entry.
readout label: IC50

INSERT INTO results (compound, measured_value) VALUES
  ('O=C1CCC(N2Cc3c(ccc(-c4cc(CN5CCCC5)c5ccn(C6COC6)c5n4)c3F)C2=O)C(=O)N1 (stereo not shown) [Example 223]', '100 to 500 nM'),
  ('O=C1CCC(N2Cc3cc(-c4cc(CN5CCC(F)CC5)c5cc[nH]c5n4)ccc3C2=O)C(=O)N1 (stereo not shown) [Example 116]', '100 to 500 nM'),
  ('CC(NCc1cc(-c2ccc3c(c2)CN(C2CCC(=O)NC2=O)C3=O)n2cncc2c1)c1ccccc1Cl (stereo not shown) [Example 23]', '1000 to 5000 nM'),
  ('O=C1CCC(N2Cc3cc(-c4ncc5ccc(CN6CCCC6)cn45)ccc3C2=O)C(=O)N1 (stereo not shown) [Example 53]', '5000 to 10000 nM'),
  ('Cn1ccc2c(CN3CCC(O)C3)cc(-c3ccc4c(c3)CN(C3CCC(=O)NC3=O)C4=O)nc21 (stereo not shown) [Example 303]', '1000 to 5000 nM'),
  ('O=C1CCC(N2Cc3cc(-c4cc(CN5CCCC5)c5cn[nH]c5n4)ccc3C2=O)C(=O)N1 (stereo not shown) [Example 105]', '500 to 1000 nM'),
  ('O=C1CCC(N2Cc3cc(-c4cc(CN5CCC5)cc5cncn45)ccc3C2=O)C(=O)N1 (stereo not shown) [Example 2]', '100 to 500 nM');
